SYSTEM NAME: GSPT1 protein (Homo sapiens, UniProt P15170+Q96SW2)
Construct: endogenous in cells; host or cells: Jeko-1
Sequence (P15170 whole entry): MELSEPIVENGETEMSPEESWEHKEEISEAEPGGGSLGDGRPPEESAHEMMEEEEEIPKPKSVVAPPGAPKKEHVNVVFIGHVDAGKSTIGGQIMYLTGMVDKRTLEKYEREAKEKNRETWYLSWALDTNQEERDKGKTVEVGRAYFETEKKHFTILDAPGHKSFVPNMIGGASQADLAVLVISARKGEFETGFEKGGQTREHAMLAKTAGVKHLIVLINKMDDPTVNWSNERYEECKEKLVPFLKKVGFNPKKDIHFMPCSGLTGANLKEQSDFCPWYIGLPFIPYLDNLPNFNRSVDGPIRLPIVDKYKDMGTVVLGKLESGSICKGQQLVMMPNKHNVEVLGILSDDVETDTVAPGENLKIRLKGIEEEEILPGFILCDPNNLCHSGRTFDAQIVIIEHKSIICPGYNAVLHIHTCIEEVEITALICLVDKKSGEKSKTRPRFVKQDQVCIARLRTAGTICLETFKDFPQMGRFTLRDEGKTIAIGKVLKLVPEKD
Sequence (Q96SW2 whole entry): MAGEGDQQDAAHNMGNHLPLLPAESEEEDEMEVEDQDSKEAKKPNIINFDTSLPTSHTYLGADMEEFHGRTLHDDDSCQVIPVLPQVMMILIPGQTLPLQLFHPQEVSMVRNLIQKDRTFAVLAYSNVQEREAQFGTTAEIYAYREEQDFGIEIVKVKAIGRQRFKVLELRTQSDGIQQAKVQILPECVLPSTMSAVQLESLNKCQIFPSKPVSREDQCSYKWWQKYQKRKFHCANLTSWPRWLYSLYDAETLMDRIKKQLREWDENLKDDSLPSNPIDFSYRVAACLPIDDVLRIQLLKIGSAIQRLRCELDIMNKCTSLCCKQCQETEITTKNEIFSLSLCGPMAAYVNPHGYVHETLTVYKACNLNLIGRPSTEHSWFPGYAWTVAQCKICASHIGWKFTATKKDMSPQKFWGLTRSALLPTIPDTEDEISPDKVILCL
Sequence (Q16531 whole entry partner): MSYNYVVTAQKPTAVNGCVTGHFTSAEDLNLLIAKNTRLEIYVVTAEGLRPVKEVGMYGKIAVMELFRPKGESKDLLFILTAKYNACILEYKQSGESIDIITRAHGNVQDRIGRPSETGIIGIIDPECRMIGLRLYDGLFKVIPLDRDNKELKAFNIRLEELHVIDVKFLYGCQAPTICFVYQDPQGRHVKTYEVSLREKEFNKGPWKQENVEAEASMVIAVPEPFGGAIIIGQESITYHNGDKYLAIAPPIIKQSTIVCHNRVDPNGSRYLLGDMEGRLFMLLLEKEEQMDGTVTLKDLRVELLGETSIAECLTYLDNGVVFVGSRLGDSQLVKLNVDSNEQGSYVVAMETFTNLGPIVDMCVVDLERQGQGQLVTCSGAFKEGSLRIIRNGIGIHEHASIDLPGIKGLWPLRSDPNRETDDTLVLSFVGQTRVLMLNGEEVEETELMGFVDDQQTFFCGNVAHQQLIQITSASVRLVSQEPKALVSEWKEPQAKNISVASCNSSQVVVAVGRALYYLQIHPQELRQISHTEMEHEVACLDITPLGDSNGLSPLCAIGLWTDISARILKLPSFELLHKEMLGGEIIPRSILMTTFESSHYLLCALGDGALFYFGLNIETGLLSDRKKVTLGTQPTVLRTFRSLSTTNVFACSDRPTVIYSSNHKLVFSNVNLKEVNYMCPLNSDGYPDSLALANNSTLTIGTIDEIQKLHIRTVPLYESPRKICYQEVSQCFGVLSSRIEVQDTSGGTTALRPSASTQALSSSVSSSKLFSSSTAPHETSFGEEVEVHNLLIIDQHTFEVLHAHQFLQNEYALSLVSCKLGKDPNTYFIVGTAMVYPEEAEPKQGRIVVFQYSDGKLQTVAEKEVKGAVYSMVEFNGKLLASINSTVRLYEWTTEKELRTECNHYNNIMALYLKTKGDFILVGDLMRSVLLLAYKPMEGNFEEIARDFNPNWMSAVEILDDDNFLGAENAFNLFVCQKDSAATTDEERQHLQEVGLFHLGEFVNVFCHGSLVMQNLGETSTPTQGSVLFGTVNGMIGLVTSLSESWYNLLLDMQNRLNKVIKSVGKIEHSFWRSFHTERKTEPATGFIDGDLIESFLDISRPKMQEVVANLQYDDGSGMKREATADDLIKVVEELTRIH
MEASUREMENT DESCRIPTION: Western blot detection of degradation activity of GSPT1 protein in Jeko-1 cells
Assay type: cell-based
TEST SETTINGS: JeKo-1, 24 h, read-out: GSPT1 degradation rate (%)
Entries annotated with measured inhibition at 1 µM
MEASURED PARAMETER: inhibition at 1 µM (%)

INSERT INTO measurements (compound, assay_result) VALUES
  ('CC(C)[C@@H]1CC[C@@H](C)C[C@H]1OC(=O)N[C@H](C(=O)NCc1ccc2c(c1)CN(C1CCC(=O)NC1=O)C2=O)c1ccccc1 (stereo partly shown) [Compound 4-175b]', 99),
  ('O=C1CCC(N2Cc3cc(CNC(=O)[C@@H](NC(=O)OC4CCCCC4)c4ccccc4)ccc3C2=O)C(=O)N1 (stereo partly shown)', 96),
  ('O=C1CCC(N2Cc3cc(CNC(=O)[C@@H](NC(=O)OC4CCOC4)c4ccccc4)ccc3C2=O)C(=O)N1 (stereo partly shown)', 68),
  ('O=C1CCC(N2Cc3cc(CNC(=O)[C@@H](NC(=O)OC4CCOCC4)c4ccccc4)ccc3C2=O)C(=O)N1 (stereo partly shown)', 90);
